Record form. Attribute: pIC50. Fill in for each entry.
biological target: urease enzyme (Canavalia ensiformis, UniProt P07374); assay: biochemical; type: biochemical
Sequence (P07374 whole entry, looked up): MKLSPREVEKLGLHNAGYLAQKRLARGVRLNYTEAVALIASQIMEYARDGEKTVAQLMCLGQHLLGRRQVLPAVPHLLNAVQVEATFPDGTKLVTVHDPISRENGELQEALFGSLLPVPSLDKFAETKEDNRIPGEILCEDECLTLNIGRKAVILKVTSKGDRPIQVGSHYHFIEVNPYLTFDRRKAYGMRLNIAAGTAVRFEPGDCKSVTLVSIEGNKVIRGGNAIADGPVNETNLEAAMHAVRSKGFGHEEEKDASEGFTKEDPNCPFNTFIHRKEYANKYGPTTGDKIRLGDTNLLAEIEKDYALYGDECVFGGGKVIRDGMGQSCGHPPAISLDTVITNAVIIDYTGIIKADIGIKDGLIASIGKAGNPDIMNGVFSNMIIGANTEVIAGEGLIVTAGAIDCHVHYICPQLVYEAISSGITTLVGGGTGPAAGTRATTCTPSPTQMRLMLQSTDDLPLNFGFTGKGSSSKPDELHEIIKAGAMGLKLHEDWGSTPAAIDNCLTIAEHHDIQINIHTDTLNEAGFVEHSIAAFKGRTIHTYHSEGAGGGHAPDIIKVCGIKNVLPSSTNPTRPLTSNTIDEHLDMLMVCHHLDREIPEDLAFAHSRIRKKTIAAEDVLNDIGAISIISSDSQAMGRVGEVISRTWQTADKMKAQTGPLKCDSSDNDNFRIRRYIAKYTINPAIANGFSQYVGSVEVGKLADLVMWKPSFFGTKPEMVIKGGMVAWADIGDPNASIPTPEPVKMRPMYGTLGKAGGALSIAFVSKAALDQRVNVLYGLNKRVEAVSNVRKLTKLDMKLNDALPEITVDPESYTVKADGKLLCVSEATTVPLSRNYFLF
Give bare numbers, as −log10 of the molar value.

Use the examples below as a reference point.
CN(C)c1ccc(C(=O)n2c(CSc3nnc4c5cc([N+](=O)[O-])ccc5n(C(=O)c5ccc(N(C)C)cc5)c4n3)nc3ccccc32)cc1
4.51
O=C(c1ccccc1[N+](=O)[O-])n1c(CSc2nnc3c4cc([N+](=O)[O-])ccc4n(C(=O)c4ccccc4[N+](=O)[O-])c3n2)nc2ccccc21
4.71
Cc1ccc(C(=O)n2c3ccc([N+](=O)[O-])cc3c3nnc(SCc4nc5ccccc5o4)nc32)cc1
4.55
COc1ccc(C(=O)n2c3ccc([N+](=O)[O-])cc3c3nnc(SCc4nc5ccccc5o4)nc32)c(OC)c1
4.50
O=C(c1cccc(O)c1)n1c(CSc2nnc3c4cc([N+](=O)[O-])ccc4n(C(=O)c4cccc(O)c4)c3n2)nc2ccccc21
4.72

Quick one: give me pIC50 for each item below, same order please.
1. O=C(c1cccc(F)c1)n1c2ccc([N+](=O)[O-])cc2c2nnc(SCc3nc4ccccc4o3)nc21
2. COc1ccc(C(=O)n2c3ccc([N+](=O)[O-])cc3c3nnc(SCc4nc5ccccc5o4)nc32)cc1O

1: 5.80; 2: 5.57
